tested on: TRPC4 (mouse), co-expressed with 5HT1a in HEK293; assay: enhancement of serotonin-evoked TRPC4 response – cell-based, second counter screen, HEK293 TRPC4/5HT1a, Fluo-4, counter-screen for TRPC4 potentiator project, confirmation (AID 434979); details: Fluo-4 calcium flux, at 10 µM, serotonin added at its EC20 dose
Active and inactive are the calls of the source.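 Rule for the calls: active = signal rise over 3 SD above mean of control wells given weak agonist, in both repeats and first screen; inactive = the rest.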
Labels: class 1 = active, class 0 = inactive

compound=Cc1ccc(Nc2nc3ccccc3[nH]2)nc1 measured_target="TRPC4 (mouse), co-expressed with 5HT1a in HEK293" qualitative_label="class 0"
compound=COc1ccc(Cl)c2sc(N(CCN(C)C)C(=O)CCS(=O)(=O)c3ccc(C)cc3)nc12 measured_target="TRPC4 (mouse), co-expressed with 5HT1a in HEK293" qualitative_label="class 0"
compound=CCn1c(=O)n(CCOC)c(=O)c2c3c(sc21)CCCC3 measured_target="TRPC4 (mouse), co-expressed with 5HT1a in HEK293" qualitative_label="class 0"
compound=CN(CCNS(=O)(=O)c1ccc2c(c1)oc(=O)n2C)Cc1ccccc1 measured_target="TRPC4 (mouse), co-expressed with 5HT1a in HEK293" qualitative_label="class 1"
compound=COc1ccc(Cc2noc(CN(C)CC3CCN(Cc4ccccc4)CC3)n2)cc1OC measured_target="TRPC4 (mouse), co-expressed with 5HT1a in HEK293" qualitative_label="class 0"
compound="COc1ccc(Br)cc1CNC(C)c1ccccc1 (stereo unspecified)" measured_target="TRPC4 (mouse), co-expressed with 5HT1a in HEK293" qualitative_label="class 0"

---

target: Short transient receptor potential channel 4 (Mus musculus); test: blockers of DAMGO-evoked TRPC4 calcium flux – cell-based, second round, Fluo4, HEK293 TRPC4beta/mu-opioid, 1 µM, confirmation (AID 2637); conditions: at 1 µM
Activity calls are given as the source filed them.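 Rule for the calls: active = calcium signal ratio cut to more than 3 SD under the fully stimulated control mean yet still positive, in both repeats and the primary screen; inactive = the rest.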
Classes used: yes (active), no (inactive)

compound=CCc1ccccc1NC(=S)N(CCCN(C)C)Cc1cc2cc3c(cc2[nH]c1=O)OCO3 qualitative_label=yes
compound=C/C(=C\c1cccc(Cl)c1Cl)C(=O)c1c(C)cc(C)[nH]c1=O qualitative_label=no
compound=CC1CCN(CCCNS(=O)(=O)c2cc(Br)cc3c2N(C(=O)C2CC2)CC3)CC1 qualitative_label=no
compound=CCOc1ccc(-n2cnnn2)cc1S(=O)(=O)NCc1ccccc1 qualitative_label=no
compound="CC1(c2ccccc2)CC(C)(C)N(C(=O)C2CCCO2)c2ccccc21 (centres undefined)" qualitative_label=no
compound=Cc1cc(OCC(=O)NC2CCCCC2)ccc1Cl qualitative_label=no
compound=Cc1ccc2nc(C)c3c(c2c1)N(c1ccc(F)cc1)CC3 qualitative_label=yes
compound=O=C(NCc1ccccc1)C1=C[C@@H](C2CCCCC2)C[C@@H](OCc2ccc(CO)cc2)O1 qualitative_label=no
compound=CCCN1CCN(C(=S)NCc2ccc(Cl)cc2)CC1 qualitative_label=no
compound=CCOc1ccccc1N(CC)C(=O)c1nn(C)c2c1CSc1ccccc1-2 qualitative_label=yes
compound=CCOC(=O)C1(CCOc2ccccc2)CCN(Cc2cccs2)CC1 qualitative_label=no
compound="COc1ccccc1N(C(=O)c1snc(C(N)=O)c1N)C(C(=O)NC1CCCC1)c1ccc2ncccc2c1 (centres undefined)" qualitative_label=no
compound=Cc1onc(-c2ccccc2)c1C(=O)NNC(=S)NC(=O)c1ccc2c(c1)OCO2 qualitative_label=no
compound=O=C1CC2(CCN(S(=O)(=O)c3ccccc3F)CC2)Oc2ccccc21 qualitative_label=no
compound=COc1ccc(-c2nc(CSCC(=O)NC3CCN(Cc4ccccc4)CC3)c(C)o2)cc1OC qualitative_label=no
compound=N=c1c2c(n(Cc3ccc(Cl)cc3)c3c1CCC3)CCC2 qualitative_label=yes
compound="CC1CN(c2nc3c(c(=O)n(Cc4ccc(Cl)c(Cl)c4)c(=O)n3C)n2C)CC(C)O1 (centres undefined)" qualitative_label=no
compound=Cc1cc(C)c(S(=O)(=O)N2CCN(C)CC2)c(C)c1 qualitative_label=no
compound="Cc1ccc(NC(=O)NCC(c2ccccc2)N(C)C)cc1 (centres undefined)" qualitative_label=no
compound="Cc1ccc(/C=N/NC(=O)C2COc3ccccc3O2)s1 (centres undefined)" qualitative_label=no
compound=Cc1ccc(C(=O)NNC(=S)NC(=O)COc2ccccc2)cc1 qualitative_label=no
compound=CCCCN(C(=O)c1cccc2c(=O)c(C)c(-c3ccccc3)oc12)c1ccccc1 qualitative_label=no
compound="O=C(NCCCN1CCN(c2cccc(Cl)c2)CC1)C1CCC(=O)N1Cc1ccccc1Cl (centres undefined)" qualitative_label=yes
compound=CCOC(=O)c1c(-c2ccc(OC)cc2)oc2ccc(O)cc12 qualitative_label=no
compound=CCCCc1nc(SCCOC)c2c(=O)n(C)c(=O)n(C)c2n1 qualitative_label=no
compound=Cc1sc(NC(=O)c2ccccc2)c(C(=O)NCCN(C)C)c1C qualitative_label=no
compound="O=[N+]([O-])c1ccc(O)c(C2=NNC(c3ccccc3F)C2)c1 (centres undefined)" qualitative_label=no
compound=NNc1ccc(Cc2ccc(Cl)cc2Cl)nn1 qualitative_label=no
compound=CCCCN(C)CCNC(=O)c1c[nH]c2ccc(S(=O)(=O)N(CC)CC)cc2c1=O qualitative_label=no
compound="COC(=O)C(CC(=O)Nc1cc(C)ccc1C)Nc1ccccc1OC (centres undefined)" qualitative_label=no
compound=Cn1c(=O)c2c(nc(CN3CCc4ccccc4C3)n2Cc2ccccc2)n(C)c1=O qualitative_label=no
compound=CCCN(CCC)CCNC(=O)CCC(=O)Nc1ccc2nc(N3CCOCC3)cc(C)c2c1 qualitative_label=no
compound="Clc1ccc(N=C2SCC3CCCCN23)cc1 (centres undefined)" qualitative_label=no
compound="OC(CNCC1CCCO1)Cn1c2ccc(Br)cc2c2cc(Br)ccc21 (centres undefined)" qualitative_label=no
compound=O=c1oc2ccccc2c(Nc2ccccc2)c1CN1CCCCC1 qualitative_label=yes
compound=O=C(c1cccc(C(=O)N2CCN(c3ccc(F)cc3)CC2)c1)N1CCN(c2ccc(F)cc2)CC1 qualitative_label=yes
compound=Cc1[nH]nc(-c2ccc(O)cc2O)c1-c1ccc(Cl)cc1 qualitative_label=no
compound="COc1ccccc1/C=C/CN1CCCC(CCC(=O)NCc2ccc(F)c(F)c2)C1 (centres undefined)" qualitative_label=no
compound="C=CCOc1ccc(C2CC(C)=NN2c2ccccc2)cc1 (centres undefined)" qualitative_label=yes
compound="CN(C)C(CNC(=O)CCS(=O)(=O)c1ccccc1)c1ccccc1 (centres undefined)" qualitative_label=no
compound=Cc1ccc(NC(=S)N(CCCN(C)C)Cc2cc3cc4c(cc3[nH]c2=O)OCO4)c(C)c1 qualitative_label=yes
compound="COc1ccc(OCC(=O)NC2CCCN(Cc3ccc(Cl)cc3)C2)cc1 (centres undefined)" qualitative_label=no
compound=Cc1ccc(-c2nn(-c3ccccc3)cc2C(=O)Nc2ccc(C(=O)O)cc2)cc1 qualitative_label=no
compound=Cc1cccc(C)c1NC(=O)NCCCN1CCN(c2ccccc2)CC1 qualitative_label=no

---

tested on: transient receptor potential cation channel C4 beta (TRPC4), mouse; assay: TRPC4 cation channel opening, second retest – cell-based, second round, Fluo4, HEK293 TRPC4beta/mu-opioid, 1 µM, confirmation (AID 2461); settings: Fluo4 calcium fluorescence, at 1 µM
Active and inactive are the calls of the source.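 The calls were made as follows: active = primary screen active and over 50% activation in each of two duplicate runs; inactive = the rest.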
Possible outcomes: 1 (active), 0 (inactive)

molecule=COc1cccc(Cn2c(Oc3ccccc3)nc3c2c(=O)n(C)c(=O)n3C)c1 qualitative_label=0
molecule=NCCCNC(=O)c1cc2ccccc2[nH]1 qualitative_label=0
molecule=COc1ccc(Nc2cc(C)nc3ccccc23)cc1 qualitative_label=0
molecule=Cc1ccc(-c2cc(C(=O)NCCCN3CCCC3)c3ccccc3n2)cc1C qualitative_label=0
molecule=N=c1c2c(n(Cc3ccc(Br)cc3)c3c1CCC3)CCCC2 qualitative_label=0
molecule="COc1ccc(C(CNC(=O)Cc2ccc(-c3ccccc3)cc2)N(C)C)cc1 (stereo unspecified)" qualitative_label=1
molecule=CCCCN(CC)CCNC(=O)Cn1cc2c(n1)-c1c(oc(C(=O)N3CCCC3)c1C)CC2 qualitative_label=0
molecule=COc1ccc2c(C)cc(N3CCCCCC3)nc2c1 qualitative_label=0
molecule=OCCNCc1cc(Br)ccc1OCc1ccccc1 qualitative_label=0
molecule=CCN(CC)CCCNC(=S)N1CCN(c2nc3ccccc3n2CC)CC1 qualitative_label=0
molecule=COc1cc2nc(=S)n3[nH]c(CCn4nc(C)cc4C)nc3c2cc1OC qualitative_label=0

---

test system: TRPC4 (mouse), co-expressed with 5HT1a in HEK293; assay: enhancement of serotonin-evoked TRPC4 response – cell-based, second counter screen, HEK293 TRPC4/5HT1a, Fluo-4, counter-screen for TRPC4 potentiator project, confirmation (AID 434979); conditions: Fluo-4 calcium flux, at 10 µM, serotonin added at its EC20 dose
Active and inactive are the calls of the source.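 How the source made its calls: active means signal rise over 3 SD above mean of control wells given weak agonist, in both repeats and first screen; inactive means the rest.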
Possible outcomes: active, inactive

molecule=O=C(CSc1nc2[nH]ncc2c(=O)n1-c1ccccc1Br)NCc1ccccc1Cl qualitative_label=inactive
molecule=Cn1c(-c2ccccc2)cnc1NCc1ccccc1 qualitative_label=inactive
molecule=Cc1cc2cc(C#N)c(NCCNC(=S)NCCCN3CCOCC3)nc2cc1C qualitative_label=inactive
molecule=c1ccc2c(c1)nnn2-c1ncnc2sc3c(c12)CCCC3 qualitative_label=inactive
molecule=CCOc1ccc(-c2cc(NC(=O)c3c(F)cccc3F)c(C(=O)O)s2)cc1 qualitative_label=inactive
molecule=CCCn1c(NCc2cc(OC)ccc2OC)nc2ccccc21 qualitative_label=inactive
molecule="Cc1ccc(-n2nc(-c3cccs3)cc2C(=O)NCC2CCCO2)c(C)c1 (stereo unspecified)" qualitative_label=inactive
molecule=CCCn1c(=O)c2sccc2n2c(CCCC(=O)NC3CCN(Cc4ccccc4)CC3)nnc12 qualitative_label=active
molecule="CCOc1ncccc1C(=O)NCC(c1ccccc1)N(C)C (stereo unspecified)" qualitative_label=inactive
molecule=CC(C)Oc1cc(N)c(Cl)cc1Cl qualitative_label=inactive
molecule="COc1ccc(C(CNC(=O)c2cccc(NS(=O)(=O)c3ccc(Br)cc3)c2)N(C)C)cc1 (stereo unspecified)" qualitative_label=inactive

These entries and their values trace back to PubChem BioAssay.
